# assayed.target: Carnitine O-palmitoyltransferase 1, muscle isoform (Homo sapiens)
# Sequence (Q92523 whole entry, canonical isoform): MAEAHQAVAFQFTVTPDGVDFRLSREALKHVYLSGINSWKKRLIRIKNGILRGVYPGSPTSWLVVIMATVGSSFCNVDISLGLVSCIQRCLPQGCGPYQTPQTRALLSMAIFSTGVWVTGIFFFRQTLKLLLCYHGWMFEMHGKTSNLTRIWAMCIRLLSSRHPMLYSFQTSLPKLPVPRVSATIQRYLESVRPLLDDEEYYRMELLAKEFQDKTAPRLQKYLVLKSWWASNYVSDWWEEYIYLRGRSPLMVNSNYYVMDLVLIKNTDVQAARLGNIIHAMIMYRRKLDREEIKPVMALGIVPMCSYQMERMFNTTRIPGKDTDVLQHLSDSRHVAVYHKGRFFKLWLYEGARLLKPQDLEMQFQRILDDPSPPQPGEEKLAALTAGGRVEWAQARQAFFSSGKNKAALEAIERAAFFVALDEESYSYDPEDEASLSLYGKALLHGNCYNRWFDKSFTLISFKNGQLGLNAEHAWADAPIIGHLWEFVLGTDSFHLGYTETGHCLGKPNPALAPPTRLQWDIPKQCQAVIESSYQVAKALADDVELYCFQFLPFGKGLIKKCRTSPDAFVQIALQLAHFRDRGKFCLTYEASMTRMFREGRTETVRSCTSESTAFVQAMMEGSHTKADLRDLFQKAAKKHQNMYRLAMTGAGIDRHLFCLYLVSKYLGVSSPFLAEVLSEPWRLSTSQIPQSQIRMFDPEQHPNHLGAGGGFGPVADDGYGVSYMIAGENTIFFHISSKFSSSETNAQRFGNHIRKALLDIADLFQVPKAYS
# test.name: SUPPLEMENTARY: Inhibition of Carnitine palmitoyltransferase 1, muscle isoform
pIC50: −log10 of the molar value.
Classify by measured pIC50: Yes if it is equal to or exceeds 5, No if it is smaller.

>  <compound>
CC(=O)Nc1cc(-c2noc([C@H]3CCCCN3C(=O)COc3ccccc3)n2)ccc1F

>  <assigned.class>
No

$$$$
>  <compound>
COc1ccc(Cl)cc1S(=O)(=O)N(C)c1cc(C(=O)Nc2ccc(C(=O)O)cc2)cc2c1OCO2

>  <assigned.class>
Yes

$$$$
>  <compound>
COc1ccc(Cl)cc1S(=O)(=O)N1CCCc2ccc(C(=O)Nc3ccc(C(=O)O)cc3)cc21

>  <assigned.class>
Yes

$$$$
>  <compound>
CCOc1ccc2c(c1)CN(C(=O)[C@H]1CCCCN1C(=O)COc1ccccc1)C2

>  <assigned.class>
No

$$$$
>  <compound>
COc1ccc(Cl)cc1S(=O)(=O)N1CC(C(=O)O)Oc2ccc(C(=O)Nc3ccccc3)cc21 (centres undefined)

>  <assigned.class>
No

$$$$
>  <compound>
O=C1COc2ccc(-c3noc([C@H]4CCCCN4C(=O)COc4ccccc4)n3)cc2N1

>  <assigned.class>
No

$$$$
>  <compound>
CCOC(=O)c1cncc(-c2noc([C@H]3CCCCN3C(=O)COc3ccccc3)n2)c1

>  <assigned.class>
No

$$$$
>  <compound>
O=C(COc1ccccc1)N1CCCC[C@@H]1c1csc(-c2cnccn2)n1

>  <assigned.class>
No

$$$$
>  <compound>
O=C(NCCO)c1cccc(-c2n[nH]c([C@H]3CCCCN3C(=O)COc3ccccc3)n2)c1

>  <assigned.class>
No

$$$$
>  <compound>
COc1ccc(Cl)cc1S(=O)(=O)N1CCOc2c(C)cc(C(=O)Nc3ccc(C(=O)O)cc3)cc21

>  <assigned.class>
No

$$$$
>  <compound>
COc1ccc(Cl)cc1S(=O)(=O)N(C)c1cccc(C(=O)Nc2nc(CC(=O)O)cs2)c1

>  <assigned.class>
Yes

$$$$
>  <compound>
O=C1CN(NC(=O)c2cccc(-c3n[nH]c([C@H]4CCCCN4C(=O)COc4ccccc4)n3)c2)C(=O)N1

>  <assigned.class>
No

$$$$
>  <compound>
Cc1cc(C)cc(S(=O)(=O)N2CCSc3ccc(C(=O)Nc4ccc(C(=O)O)cc4)cc32)c1

>  <assigned.class>
Yes

$$$$
>  <compound>
O=C(COc1ccccc1)N1CCCC[C@@H]1c1noc(-c2cnc3[nH]cnc3c2)n1

>  <assigned.class>
No

$$$$
>  <compound>
N#Cc1ccc(-c2nc([C@H]3CCCCN3C(=O)COc3ccccc3)no2)cc1

>  <assigned.class>
No

$$$$
>  <compound>
O=C(O)c1cncc(-c2noc([C@H]3CCCCN3C(=O)COc3ccccc3)n2)c1

>  <assigned.class>
No

$$$$
>  <compound>
Cc1ccnc(N2CCN(C(=O)[C@H]3CCCCN3C(=O)COc3ccccc3)CC2)c1

>  <assigned.class>
No

$$$$
>  <compound>
COc1ccc(Cl)cc1S(=O)(=O)c1cn(C)c2ccc(C(=O)Nc3ccc(C(=O)O)cc3)cc12

>  <assigned.class>
Yes

$$$$
>  <compound>
O=C(O)c1cccc(-c2csc([C@H]3CCCCN3C(=O)COc3ccccc3)n2)n1

>  <assigned.class>
No

$$$$

Reference source: ChEMBL document CHEMBL3431459
